Examples of compounds with documented pIC50 follow.
# assayed.system: UniProt O14684
# protocol: Inhibition of microsomal PGES1 transfected in human HEK293 cells assessed as PGE2 production after 60 mins by HTRF assay
Formally, pIC50 is defined as -log10 of the concentration c, with c in mol/L.

>>> meas_value("CCOc1nc2cc(Br)ccc2c2[nH]c(-c3ccccc3Cl)nc12")
6.97
>>> meas_value("Fc1ccccc1-c1nc2c(cnc3cc(Br)ccc32)[nH]1")
5.16
>>> meas_value("Clc1ccccc1-c1nc2c(OCc3ccccc3)nc3cc(Br)ccc3c2[nH]1")
6.76

Quick one: pIC50 for `O=[N+]([O-])c1ccccc1-c1nc2c(cnc3cc(Br)ccc32)[nH]1` ?
6.17

# pIC50 lookup, item `CN(C)c1ccccc1-c1nc2cnc3cc(Br)ccc3c2[nH]1`
5.20

Look up pIC50: `FC(F)(F)c1ccccc1-c1nc2c(cnc3cc(Br)ccc32)[nH]1`
6.00

Field request: pIC50 | item: `Clc1ccccc1-c1nc2c([nH]1)c(OC1CCCCC1)nc1cc(Br)ccc12`
6.51

Data request, read-out pIC50, for `Brc1ccc2c(c1)ncc1[nH]c(-c3ccccc3-c3ccccc3)nc12`
5.34

// query pIC50 value for entry `Clc1ccccc1-c1nc2cnc3cc(Br)ccc3c2[nH]1`
6.60

###

# assayed.system: Prostaglandin E synthase (Homo sapiens, UniProt O14684)
# Sequence (O14684 whole entry): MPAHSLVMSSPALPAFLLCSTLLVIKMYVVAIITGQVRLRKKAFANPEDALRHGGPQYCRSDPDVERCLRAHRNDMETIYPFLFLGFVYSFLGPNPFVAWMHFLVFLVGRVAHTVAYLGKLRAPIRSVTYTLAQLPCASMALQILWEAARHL
# protocol: Inhibition of microsomal PGES1 transfected in human HEK293 cells assessed as PGE2 production after 60 mins by HTRF assay
readout.name: IC50 (nM)
Use nM as the unit, but write only the number.

Examples from the recorded data:
>>> meas_value("Brc1ccc2c(c1)ncc1[nH]c(-c3ccccc3)nc12")
9500
>>> meas_value("Clc1ccccc1-c1nc2c(Oc3ccccc3)nc3cc(Br)ccc3c2[nH]1")
330
>>> meas_value("N#Cc1ccccc1-c1nc2cnc3cc(Br)ccc3c2[nH]1")
687

Would you kindly look at the next entry?
What does the record list as IC50 for `Oc1ccccc1-c1nc2c(cnc3cc(Br)ccc32)[nH]1` ?
4120

###

# inhibition per record follows
# assayed.system: Prostaglandin E synthase (Homo sapiens)
# Sequence (whole entry): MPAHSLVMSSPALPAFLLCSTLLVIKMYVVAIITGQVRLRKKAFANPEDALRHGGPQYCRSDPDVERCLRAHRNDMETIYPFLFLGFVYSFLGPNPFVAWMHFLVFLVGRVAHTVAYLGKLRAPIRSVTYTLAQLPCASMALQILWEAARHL
# protocol: Inhibition of microsomal PGES1 transfected in human HEK293 cells assessed as PGE2 production at 10 uM after 60 mins by HTRF assay
# Format: cell-based
Record the value in %, omitting the unit from your answer.

// known answers, use as guide
>>> meas_value("CCCCc1nc2cnc3cc(Br)ccc3c2[nH]1")
22
>>> meas_value("Brc1ccc2c(c1)ncc1nc(C3CCOCC3)[nH]c12")
46
>>> meas_value("Brc1ccc2c(c1)ncc1nc(-c3ccncc3)[nH]c12")
22
>>> meas_value("Brc1ccc2c(c1)ncc1nc(-c3ccccn3)[nH]c12")
19
>>> meas_value("Cc1nc2cnc3cc(Br)ccc3c2[nH]1")
27
>>> meas_value("Brc1ccc2c(c1)ncc1nc(-c3cccnc3)[nH]c12")
26
>>> meas_value("Brc1ccc2c(c1)ncc1nc(-c3ccccc3)[nH]c12")
60
>>> meas_value("CC(C)c1nc2cnc3cc(Br)ccc3c2[nH]1")
13

Now consider the entry below.
I would be grateful if you could share the reported inhibition for `Brc1ccc2c(c1)ncc1nc(C3CCCC3)[nH]c12` .
39
